- experimental system: T1, cMetECDHis (human, UniProt P08581 25-932, limits assumed, biotinylated in the cross-block ELISA of Example 17)
- T1 construct: Expressed in HEK-293F cells; also called soluble cMetECDHis; biotinylated cMetECDHis
- measurement notes: cross-block ELISA; competitor 069
endpoint label: residual binding, % of no competitor
Hey, just the number and the unit after it is fine.

binder: anti-c-Met HuMab 006 (IgG1) (antibody, V domains shown, also called TH1016-006; PC1016-006) VH: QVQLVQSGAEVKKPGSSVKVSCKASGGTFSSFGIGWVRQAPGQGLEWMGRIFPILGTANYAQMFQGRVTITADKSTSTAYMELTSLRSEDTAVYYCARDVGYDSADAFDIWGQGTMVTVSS VL: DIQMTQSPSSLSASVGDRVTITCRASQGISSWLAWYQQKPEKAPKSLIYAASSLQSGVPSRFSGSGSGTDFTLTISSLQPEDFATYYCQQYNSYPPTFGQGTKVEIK
observed value: 124%

Req: Which residual binding, % of no competitor value is on record for IgG1-1016-058 (antibody, V domains shown, also called IgG1-058; TH1016-058) VH: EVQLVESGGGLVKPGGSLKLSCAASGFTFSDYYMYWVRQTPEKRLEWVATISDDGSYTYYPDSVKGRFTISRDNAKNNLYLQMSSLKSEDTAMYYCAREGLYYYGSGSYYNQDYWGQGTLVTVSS VL: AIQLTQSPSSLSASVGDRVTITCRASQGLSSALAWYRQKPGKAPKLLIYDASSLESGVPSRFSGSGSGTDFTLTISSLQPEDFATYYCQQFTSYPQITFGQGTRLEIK ?
Resp: 113%
